Data origin: the supplement of paper PMC8728848

# measuredOn: Gal(a1-3)Gal(b1-4)Glc
# procedureDetails: glycan array binding signal (z-score within array); higher = stronger binding
# details: glycan notation: IUPAC condensed, linker removed
Shown is part of a subset that was picked to be rich in the strongest signals.
quantityMeasured: glycan array binding signal (z-score)
Quick one: just the number, no unit, thanks!

For the binder SRS2 (Toxoplasma gondii), O15695 (protein) MATRASLARQKTGAACLAVLTASPSVVAAKPWKRWVGVSVILASAFAVGVSAGPPYRYEPEKFTCRPKKGILSQWVSLLYQVQHNITFACEEATPVPTTLISEEHGLMVCAENMTPEECEANPAPLSAFLPGATKEWVTGDSVLTGLKISVPESQYPANAKSFRVGCRHNTKTGNTCMLTIHVEPRDPAVERQEARCSYTENSTLPKIFVTKDSNTMTLACGPHGAPMPESYTENYCSTPDTCDEKPFTSVIPGYLSKWFFGDPKSPLGARVRIPPEQIPSSPQINYFGCTGPTEGEGPKYNCTVPVPLGGGDPSEGSRPGGGSGGGKRGGGQGGGGSLAGFDFRQGSARHSLPSRMALSASALLAMTALAY , what glycan array binding signal (z-score) is on record?
-0.428
